Dmax reference
Biological target: IKZF1 (Homo sapiens (Human), UniProt Q13422+Q96SW2)
Sequence (Q13422 whole entry, one chain of several): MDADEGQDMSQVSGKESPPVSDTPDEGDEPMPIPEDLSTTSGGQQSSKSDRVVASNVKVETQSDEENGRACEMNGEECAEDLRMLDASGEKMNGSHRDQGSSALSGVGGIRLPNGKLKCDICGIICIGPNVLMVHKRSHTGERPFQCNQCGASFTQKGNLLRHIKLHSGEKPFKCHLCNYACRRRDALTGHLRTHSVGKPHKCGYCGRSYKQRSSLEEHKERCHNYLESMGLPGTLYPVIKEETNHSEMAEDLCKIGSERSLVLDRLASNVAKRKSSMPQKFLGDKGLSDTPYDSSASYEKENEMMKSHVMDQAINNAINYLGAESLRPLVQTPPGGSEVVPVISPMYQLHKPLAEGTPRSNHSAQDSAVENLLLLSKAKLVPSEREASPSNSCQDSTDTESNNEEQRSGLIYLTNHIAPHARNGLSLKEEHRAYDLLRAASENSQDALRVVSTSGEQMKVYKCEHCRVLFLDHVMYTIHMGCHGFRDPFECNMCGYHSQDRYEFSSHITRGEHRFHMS
Assay: In vitro IKZF1 HiBit Assay (HEK293T Flp-in-HiBiT-IKZF1 stable cell line)
Format: cell-based
Conditions: HEK-293T; HEK293T Flp-in-HiBiT-IKZF1 stable cell line, 6 hrs incubation; read-out: IKZF1 HiBit Dmax (%)
Description: In Vitro IKZF1 HiBit Assay […] 25 nL of diluted compound is transferred to assay plates (Corning3571) using ECHO550, the final DMSO concentration @ 0.1%. […] The amount of Nano-Glo® HiBiT lytic reagent needed to perform the desired experiments is calculated. […] After briefly centrifuge, the plateis read on Envision. […] The extent of degradation (range of luminescence) from the highest to lowest concentration points was calculated to determine the Dmax. […]

Query string: Entry Cc1cc2c(CN3CCCC3)cc(-c3ccc4c(c3)CN(C3CCC(=O)NC3=O)C4=O)nc2n1C1COC1 (stereo not shown) has what Dmax?
Result string: < 20%

====

Dmax reference
Biological target: IKZF2 (Homo sapiens (Human), UniProt Q96SW2+Q9UKS7)
Sequence (Q9UKS7 whole entry): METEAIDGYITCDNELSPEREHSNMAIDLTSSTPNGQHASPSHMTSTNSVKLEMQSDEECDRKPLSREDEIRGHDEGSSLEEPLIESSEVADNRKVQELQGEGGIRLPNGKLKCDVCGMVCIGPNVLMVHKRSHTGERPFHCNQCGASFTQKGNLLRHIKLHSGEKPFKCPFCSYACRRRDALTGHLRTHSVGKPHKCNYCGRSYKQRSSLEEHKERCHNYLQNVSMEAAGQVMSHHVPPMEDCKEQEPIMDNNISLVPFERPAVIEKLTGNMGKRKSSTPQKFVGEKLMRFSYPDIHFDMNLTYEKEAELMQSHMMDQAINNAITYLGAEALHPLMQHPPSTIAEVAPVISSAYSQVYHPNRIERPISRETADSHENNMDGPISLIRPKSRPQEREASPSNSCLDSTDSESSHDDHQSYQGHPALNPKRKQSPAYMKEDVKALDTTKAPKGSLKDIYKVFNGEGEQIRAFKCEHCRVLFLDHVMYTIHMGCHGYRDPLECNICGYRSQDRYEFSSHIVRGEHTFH
Sequence (Q96SW2 whole entry): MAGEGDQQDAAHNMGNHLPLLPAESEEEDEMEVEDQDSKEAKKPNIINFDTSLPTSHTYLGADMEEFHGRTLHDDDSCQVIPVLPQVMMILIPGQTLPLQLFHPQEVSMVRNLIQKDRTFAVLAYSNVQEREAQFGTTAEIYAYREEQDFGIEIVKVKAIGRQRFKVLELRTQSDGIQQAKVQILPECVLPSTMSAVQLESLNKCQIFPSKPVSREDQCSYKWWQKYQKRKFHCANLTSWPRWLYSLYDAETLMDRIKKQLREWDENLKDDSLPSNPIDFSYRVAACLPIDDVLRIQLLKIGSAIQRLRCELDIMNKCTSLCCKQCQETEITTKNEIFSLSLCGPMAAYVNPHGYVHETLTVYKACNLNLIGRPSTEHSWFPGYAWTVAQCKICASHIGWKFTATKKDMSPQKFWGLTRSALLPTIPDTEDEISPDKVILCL
Sequence (Q16531 2-1140 partner): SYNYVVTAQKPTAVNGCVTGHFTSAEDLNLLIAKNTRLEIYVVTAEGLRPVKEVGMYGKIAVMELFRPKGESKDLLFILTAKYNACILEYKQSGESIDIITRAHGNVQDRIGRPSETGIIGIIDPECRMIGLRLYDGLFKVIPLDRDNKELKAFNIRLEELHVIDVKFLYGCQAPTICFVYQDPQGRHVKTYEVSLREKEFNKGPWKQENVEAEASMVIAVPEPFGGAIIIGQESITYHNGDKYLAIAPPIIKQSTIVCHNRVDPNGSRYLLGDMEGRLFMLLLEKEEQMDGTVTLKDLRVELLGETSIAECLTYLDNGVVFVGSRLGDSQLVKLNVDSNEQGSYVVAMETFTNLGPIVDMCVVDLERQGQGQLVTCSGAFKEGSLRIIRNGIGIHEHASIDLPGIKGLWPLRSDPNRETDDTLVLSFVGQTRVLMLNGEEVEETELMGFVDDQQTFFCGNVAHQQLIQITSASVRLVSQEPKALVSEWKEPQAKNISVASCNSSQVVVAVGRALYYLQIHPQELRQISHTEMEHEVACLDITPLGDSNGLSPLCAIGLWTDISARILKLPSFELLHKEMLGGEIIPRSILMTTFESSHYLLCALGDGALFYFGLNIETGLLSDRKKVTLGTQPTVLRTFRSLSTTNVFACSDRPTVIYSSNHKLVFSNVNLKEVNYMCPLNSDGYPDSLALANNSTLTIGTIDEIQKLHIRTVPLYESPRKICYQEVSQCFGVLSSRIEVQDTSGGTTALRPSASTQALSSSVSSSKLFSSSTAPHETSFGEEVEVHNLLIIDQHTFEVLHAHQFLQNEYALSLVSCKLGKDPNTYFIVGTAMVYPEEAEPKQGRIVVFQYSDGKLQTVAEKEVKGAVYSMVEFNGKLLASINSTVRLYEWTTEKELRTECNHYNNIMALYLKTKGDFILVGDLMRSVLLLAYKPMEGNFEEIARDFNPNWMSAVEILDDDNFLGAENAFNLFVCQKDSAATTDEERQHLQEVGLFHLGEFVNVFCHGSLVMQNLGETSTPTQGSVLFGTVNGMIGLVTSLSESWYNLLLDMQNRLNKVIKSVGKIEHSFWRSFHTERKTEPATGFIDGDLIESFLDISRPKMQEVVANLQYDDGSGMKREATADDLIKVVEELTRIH
Experiment: In vitro IKZF2 FACS Assay in Jurkat cells
Assay type: cell-based
Details: 24 hrs, maximal degradation percentage

These recorded examples may help you get a feel for the data.
{"columns": ["molecule", "reported.endpoint", "measured"],
 "data": [
  ["O=C1CCC(N2Cc3cc(-c4cc(CN5CCC6(CC5)CC6)cc5cncn45)ccc3C2=O)C(=O)N1 (stereo not drawn)", "Dmax", "40 to 60%"],
  ["CC(NCc1cc(-c2ccc3c(c2)CN(C2CCC(=O)NC2=O)C3=O)n2cncc2c1)c1ccccc1Cl (stereo not drawn)", "Dmax", "20 to 40%"],
  ["CC(C)Nc1n[nH]c2c(CN3CCC(C(F)(F)F)CC3)cc(-c3ccc4c(c3F)CN(C3CCC(=O)NC3=O)C4=O)nc12 (stereo not drawn)", "Dmax", "60 to 80%"],
  ["O=C1CCC(N2Cc3c(ccc(-c4cc(CN5CCCC5)c5ccn(C6COC6)c5n4)c3F)C2=O)C(=O)N1 (stereo not drawn)", "Dmax", "> 80%"]
]}

Query string: Lab request: please report Dmax under test system IKZF2 (Homo sapiens (Human), UniProt Q96SW2+Q9UKS7) for Cn1cnc2c(CN3CCCC3)cc(-c3ccc4c(c3)CN(C3CCC(=O)NC3=O)C4=O)nc21 (stereo not drawn)
Result string: > 80%

Query string: Another molecule to look at: C[C@H](c1ccccc1)N(C)Cc1cc(-c2ccc3c(c2)CN(C2CCC(=O)NC2=O)C3=O)n2cncc2c1 (single isomer, unassigned)
Result string: 20 to 40%

Query string: Another molecule to look at: O=C1CCC(N2Cc3cc(-c4cc(CN5CCC(O)CC5)c5ccn(C6COC6)c5n4)ccc3C2=O)C(=O)N1 (stereo not drawn)
Result string: > 80%

Query string: Another molecule to look at: O=C1CCC(N2Cc3c(ccc(-c4cc(CN5CC6COCC6C5)c5ccn(C6CS(=O)(=O)C6)c5n4)c3F)C2=O)C(=O)N1 (stereo not drawn)
Result string: > 80%

Query string: Another molecule to look at: CNc1n[nH]c2c(CN3CCCC3)cc(-c3ccc4c(c3)CN(C3CCC(=O)NC3=O)C4=O)nc12 (stereo not drawn)
Result string: > 80%

Query string: Another molecule to look at: Nc1nn(C2CC2)c2c(CN3CCCC3)cc(-c3ccc4c(c3)CN(C3CCC(=O)NC3=O)C4=O)nc12 (stereo not drawn)
Result string: > 80%

Query string: Another molecule to look at: CC(C)Nc1n[nH]c2c(CN3CCCC3)cc(-c3ccc4c(c3Cl)CN(C3CCC(=O)NC3=O)C4=O)nc12 (stereo not drawn)
Result string: > 80%

Query string: Another molecule to look at: O=C1CCC(N2Cc3cc(-c4ccc(CN5CCCC5)c5cncn45)ccc3C2=O)C(=O)N1 (stereo not drawn)
Result string: > 80%

Query string: Another molecule to look at: O=C1CCC(N2Cc3cc(-c4cc(CN5CCCC5)c5cn[nH]c5n4)ccc3C2=O)C(=O)N1 (stereo not drawn)
Result string: > 80%

Query string: Another molecule to look at: CC1CCCN(Cc2cc(-c3ccc4c(c3)CN(C3CCC(=O)NC3=O)C4=O)n3cncc3c2)C1 (stereo not drawn)
Result string: 40 to 60%

Query string: Another molecule to look at: O=C1CCC(N2Cc3cc(-c4cc(CN5CCCC5)c5nccc(OC6CC6)c5n4)ccc3C2=O)C(=O)N1 (stereo not drawn)
Result string: > 80%

====

pIC50 reference
Target: CRBN/DDB1 (Homo sapiens (Human), UniProt Q96SW2)
Sequence (Q96SW2 whole entry, species assumed): as the sequence (Q96SW2 whole entry) above
Sequence (Q16531 whole entry partner, species assumed): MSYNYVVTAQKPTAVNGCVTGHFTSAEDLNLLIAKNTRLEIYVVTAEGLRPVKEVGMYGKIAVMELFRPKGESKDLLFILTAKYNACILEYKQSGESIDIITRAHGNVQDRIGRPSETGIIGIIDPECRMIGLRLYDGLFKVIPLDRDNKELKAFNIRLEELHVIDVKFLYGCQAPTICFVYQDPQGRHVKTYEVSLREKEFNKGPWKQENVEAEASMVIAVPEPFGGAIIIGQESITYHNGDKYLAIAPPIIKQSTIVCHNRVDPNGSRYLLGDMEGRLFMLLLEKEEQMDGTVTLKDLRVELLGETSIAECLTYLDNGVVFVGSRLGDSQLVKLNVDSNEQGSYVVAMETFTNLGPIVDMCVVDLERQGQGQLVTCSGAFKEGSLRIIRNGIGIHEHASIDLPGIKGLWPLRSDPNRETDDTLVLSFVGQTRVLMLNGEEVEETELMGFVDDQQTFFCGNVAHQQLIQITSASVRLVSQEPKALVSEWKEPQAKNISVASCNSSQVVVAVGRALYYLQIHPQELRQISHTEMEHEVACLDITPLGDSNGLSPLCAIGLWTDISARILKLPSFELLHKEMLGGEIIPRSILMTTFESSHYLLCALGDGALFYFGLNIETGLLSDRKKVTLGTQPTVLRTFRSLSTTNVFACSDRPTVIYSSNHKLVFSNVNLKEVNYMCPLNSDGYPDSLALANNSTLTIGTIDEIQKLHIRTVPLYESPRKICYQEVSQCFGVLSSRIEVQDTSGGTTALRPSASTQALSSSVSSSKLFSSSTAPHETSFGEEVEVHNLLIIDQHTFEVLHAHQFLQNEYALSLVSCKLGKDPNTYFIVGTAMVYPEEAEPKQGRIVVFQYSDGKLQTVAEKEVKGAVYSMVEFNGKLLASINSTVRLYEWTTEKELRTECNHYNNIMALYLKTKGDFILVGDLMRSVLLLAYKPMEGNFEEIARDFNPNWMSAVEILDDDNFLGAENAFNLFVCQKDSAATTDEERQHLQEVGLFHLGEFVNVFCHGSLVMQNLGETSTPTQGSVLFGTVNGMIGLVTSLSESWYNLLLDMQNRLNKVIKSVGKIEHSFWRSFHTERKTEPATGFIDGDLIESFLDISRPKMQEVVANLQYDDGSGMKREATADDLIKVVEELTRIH
Assay: IC50 measurements for binding to CRBN/DDB1 (HTRF)
Conditions: His tagged CRBN+DDB, Cy5-labeled Thalidomide probe, one hour
pIC50: −log10 of the molar value.

Query string: Lab request: please report pIC50 under test system CRBN/DDB1 (Homo sapiens (Human), UniProt Q96SW2) for CN1CC(n2ccc3c(CN4CCCC4)cc(-c4ccc5c(c4)CN(C4CCC(=O)NC4=O)C5=O)nc32)C1 (stereo not drawn)
Result string: > 7.00

====

Molecular target: CRBN/DDB1 (Homo sapiens (Human))
Experiment: IC50 measurements for binding to CRBN/DDB1 (HTRF)
Conditions: His tagged CRBN+DDB, Cy5-labeled Thalidomide probe, one hour
reported.endpoint: IC50

These recorded examples may help you get a feel for the data.
{"columns": ["compound", "IC50"],
 "data": [
  ["O=C1CCC(N2Cc3cc(-c4cc(CN5CCC(F)(F)CC5)cn5ccnc45)ccc3C2=O)C(=O)N1 (stereo not shown)", "100 to 500 nM"],
  ["Cc1nc2nc(-c3ccc4c(c3)CN(C3CCC(=O)NC3=O)C4=O)cc(CN3CCCC3)c2o1 (stereo not shown)", "1000 to 5000 nM"],
  ["O=C1CCC(N2Cc3cc(-c4cc(CN5CCCC5)c5ccn(C6CCC6)c5n4)ccc3C2=O)C(=O)N1 (stereo not shown)", "100 to 500 nM"],
  ["O=C1CCC(N2Cc3cc(-c4nc(CN5CCCC5)c5ccn(C6CCC6)c5n4)ccc3C2=O)C(=O)N1 (stereo not shown)", "500 to 1000 nM"],
  ["COC1CCN(Cc2cc(-c3ccc4c(c3)CN(C3CCC(=O)NC3=O)C4=O)nc3c2ccn3C)CC1 (stereo not shown)", "100 to 500 nM"]
]}

Query string: Entry Cn1ccc2c(CN3CC4COCC4C3)cc(-c3ccc4c(c3)CN(C3CCC(=O)NC3=O)C4=O)nc21 (stereo not shown) has what IC50?
Result string: 100 to 500 nM

Query string: Another compound to look at: O=C1CCC(N2Cc3cc(-c4cc(CN5CCCC5)cc5cncn45)ccc3C2=O)C(=O)N1 (stereo not shown)
Result string: 100 to 500 nM

====

Target: IKZF2 (Homo sapiens (Human), UniProt Q96SW2+Q9UKS7)
Experiment: In vitro IKZF2 Western Blot Assay in Jurkat cells
Type: cell-based
Conditions: 24 hrs, 0.01 μM, read-out: IKZF2 degradation (%) @ μM 0.01
Protocol: In vitro IKZF2 Western Blot Assay Jurkat cells (ATCC, Cat #HB-8065) were cultured in RPMI1640+10% FBS+1% P/S. Cells were treated at desired compound concentrations (0.001, 0.01, 0.1, 1, and 10 μM) and DMSO as vehicle control for 24 hrs. After 24 hr of treatment cells were collected by centrifugation and lysed in RIPA lysis buffer on ice for 10 min. […] Band intensities were quantified using ImageStudio software. Data was further analyzed using XLfit. […]
reported.endpoint: inhibition at 0.01 µM

These recorded examples may help you get a feel for the data.
{"columns": ["compound", "measured"],
 "data": [
  ["Cc1ccccc1CCNCc1cc(-c2ccc3c(c2)CN(C2CCC(=O)NC2=O)C3=O)c2nccn2c1 (stereo not shown) [Example 42]", "< 30%"],
  ["O=C1CCC(N2Cc3cc(-c4cc(CN5CCC5)cn5ccnc45)ccc3C2=O)C(=O)N1 (stereo not shown) [Example 34]", "30 to 50%"]
]}

Now look at this one.
Query string: Entry CC(C)(NCc1cc(-c2ccc3c(c2)CN(C2CCC(=O)NC2=O)C3=O)c2nccn2c1)c1ccccc1 (stereo not shown) [Example 46] has what inhibition at 0.01 µM?
Result string: < 30%

====

Dmax reference
Target: IKZF2 (Homo sapiens (Human), UniProt Q96SW2+Q9UKS7)
Assay: In vitro IKZF2 FACS Assay in Jurkat cells
Format: cell-based
Settings: 24 hrs, maximal degradation percentage

These recorded examples may help you get a feel for the data.
{"columns": ["compound", "Dmax"],
 "data": [
  ["CC1CCN(Cc2cc(-c3ccc4c(c3)CN(C3CCC(=O)NC3=O)C4=O)n3cncc3c2)C1 (stereo not drawn) [Example 6]", "60 to 80%"],
  ["CC(NCc1cc(-c2ccc3c(c2)CN(C2CCC(=O)NC2=O)C3=O)n2cncc2c1)c1cccc(Cl)c1 (stereo not drawn) [Example 20]", "20 to 40%"],
  ["COc1c(-c2cc(CN3CCCC3)cc3cncn23)ccc2c1CN(C1CCC(=O)NC1=O)C2=O (stereo not drawn) [Example 31]", "< 20%"],
  ["O=C1CCC(N2Cc3cc(-c4cc(CN5CC6COCC6C5)c5ccn(C6COC6)c5n4)ccc3C2=O)C(=O)N1 (stereo not drawn) [Example 186]", "> 80%"],
  ["CC(C)Oc1ccnc2c(CN3CCCC3)cc(-c3ccc4c(c3)CN(C3CCC(=O)NC3=O)C4=O)nc12 (stereo not drawn) [Example 232]", "60 to 80%"]
]}

Now look at this one.
Query string: Entry CN1CC(n2ncc3c(CN4CCCC4)cc(-c4ccc5c(c4)CN(C4CCC(=O)NC4=O)C5=O)nc32)C1 (stereo not drawn) [Example 261] has what Dmax?
Result string: > 80%
